The values you see were collected from ChEMBL document CHEMBL1125485.

- subject of test: Phosphodiesterase 3 (Homo sapiens, UniProt Q14432+Q13370)
- assay remarks: Inhibition of human platelet PDE by inhibiting cyclic Adenosine monophosphate (cAMP) hydrolysis
Under this convention, 1 (yes) denotes IC50 strictly below 20 nM and 0 (no) denotes IC50 at or above 20 nM.

Just wondering, is IC50 of OCCCc1ccc2[nH]c3nc(O)nc-3cc2c1 below 20 nM?
0 (no)

// query: CC(=O)OCCCCOc1ccc2[nH]c3nc(O)nc-3cc2c1
0 (no)

// query: O=c1[nH]c2cc3cc(OCCCS(=O)(=O)c4ccccc4)ccc3nc2[nH]1
1 (yes)

// query: Cn1c(O)nc2nc3ccc(OCCCCC(=O)O)cc3cc21
0 (no)

// query: CC(=O)OCCOc1ccc2[nH]c3nc(O)nc-3cc2c1
0 (no)

// query: O=C(CCCCc1ccc2[nH]c3nc(O)nc-3cc2c1)NC1CCCCC1
0 (no)

// query: CCOC(=O)CN(C(=O)CCCOc1ccc2[nH]c3nc(O)nc-3cc2c1)C1CCCCC1
1 (yes)

// query: O=C(O)CCCCCOc1ccc2[nH]c3nc(O)nc-3cc2c1
1 (yes)

// query: Cn1c(=O)n(C)c2nc3ccc(OCCCC(=O)O)cc3cc21
0 (no)

// query: OCCCCCc1ccc2[nH]c3nc(O)nc-3cc2c1
0 (no)

// query: CCOC(=O)C1CCN(C(=O)CCCOc2ccc3[nH]c4nc(O)nc-4cc3c2)CC1
1 (yes)

// query: O=C(CCCCc1ccc2[nH]c3nc(O)nc-3cc2c1)NC12C[C@H]3C[C@@H](C1)C[C@@H](C2)C3
1 (yes)

// query: CCOCCOc1ccc2[nH]c3nc(O)nc-3cc2c1
0 (no)

// query: CN(C(=O)CCCCOc1ccc2nc3nc(O)n(C)c3cc2c1)C1CCCCC1
0 (no)

// query: CN(C(=O)CCCCc1ccc2[nH]c3nc(O)nc-3cc2c1)C1CCCCC1
0 (no)

// query: CN(C(=O)CCCCCOc1ccc2nc3[nH]c(=O)[nH]c3cc2c1)C1CCCCC1
1 (yes)

// query: NC(=O)CCCOc1ccc2[nH]c3nc(O)nc-3cc2c1
1 (yes)

// query: Cn1c(O)nc2nc3ccc(OCCCC(=O)O)cc3cc21
0 (no)

// query: CN(C(=O)CCCCOc1ccc2[nH]c3nc(O)nc-3cc2c1)C1CCCCC1
1 (yes)

// query: O=C(O)CCCOc1ccc2c(c1)CN1CC(=O)NC1=N2
0 (no)

// query: Oc1nc2cc3cc(OCCCCc4nnnn4C4CCCCC4)ccc3[nH]c-2n1
1 (yes)

// query: N#CCCCOc1ccc2[nH]c3nc(O)nc-3cc2c1
1 (yes)

// query: COC(=O)CCCOc1ccc2nc3c(cc2c1)n(C)c(=O)n3C
0 (no)

// query: CN(C(=O)CCCOc1ccc2nc3nc(O)n(C)c3cc2c1)C1CCCCCC1
0 (no)

// query: N#CCCCCOc1ccc2[nH]c3nc(O)nc-3cc2c1
0 (no)

// query: COC(=O)CCCCOc1ccc2nc3nc(O)n(C)c3cc2c1
0 (no)

// query: O=C(CCCCc1ccc2[nH]c3nc(O)nc-3cc2c1)N1CCCCC1
0 (no)

// query: CN(C(=O)CCCCOc1ccc2nc3[nH]c(=O)[nH]c3cc2c1)C1CCCCCC1
1 (yes)

// query: COC(=O)CN(C(=O)CCCOc1ccc2[nH]c3nc(O)nc-3cc2c1)C1CCCCC1
1 (yes)

// query: COC(=O)CCCCCOc1ccc2nc3[nH]c(=O)[nH]c3cc2c1
0 (no)

// query: CC(O)CCCOc1ccc2[nH]c3nc(O)nc-3cc2c1 (stereo not given)
0 (no)

// query: CN(C(=O)CCCOc1ccc2nc3nc(O)n(C)c3cc2c1)C1CCCCC1
0 (no)

// query: O=C(CCCOc1ccc2[nH]c3nc(O)nc-3cc2c1)NC1CCCCCC1
1 (yes)

// query: O=c1[nH]c2cc3cc(OCCCCS(=O)(=O)c4ccccc4)ccc3nc2[nH]1
1 (yes)

// query: CN(C(=O)CCCOc1ccc2c(c1)CN1CC(=O)NC1=N2)C1CCCCC1
1 (yes)

// query: CN(C(=O)CCCOc1ccc2nc3c(cc2c1)n(C)c(=O)n3C)C1CCCCC1
0 (no)

// query: COC(=O)CCCOc1ccc2nc3c(cc2c1)nc(O)n3C
0 (no)

// query: OCCCCOc1ccc2[nH]c3nc(O)nc-3cc2c1
1 (yes)

// query: COC(=O)CCCOc1ccc2nc3[nH]c(=O)[nH]c3cc2c1
0 (no)

// query: O=C(O)CN(C(=O)CCCOc1ccc2[nH]c3nc(O)nc-3cc2c1)C1CCCCC1
1 (yes)
